- test.details: CCTE_Shafer_MEA_acute_per_network_burst_electrodes_number_mean: CCTE's Neural Acute Assay for Mean Number of Electrodes in a Network Burst, Shafer Lab (AID 2284021);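 note: curves fitted for decreases only so hits reduce electrodes per burst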
The source made the active and inactive calls. Rule for the calls: active = hit-call score of the fitted dose curve at least 0.9, where 1 is the maximum; inactive = score below 0.9.
recorded.metric: AC50

compound=O=CN1CCOCC1 recorded_metric=AC50 observed=inactive
compound="C=CC(C)(O)CCC=C(C)C (configuration not stated)" recorded_metric=AC50 observed=inactive
compound="CCCCCCC(CO)CCCC (configuration not stated)" recorded_metric=AC50 observed="77.4 nM (active)"
compound=CC1(C)CCC[C@]2(C)[C@H]3CCO[C@]3(C)CC[C@@H]12 recorded_metric=AC50 observed=inactive
compound=O=C(Nc1ccc2c(O)c(N=Nc3ccc(N=Nc4ccc(S(=O)(=O)O)cc4)cc3)c(S(=O)(=O)O)cc2c1)c1ccccc1 recorded_metric=AC50 observed=inactive
compound="COCCc1ccc(OCC(O)CNC(C)C)cc1 (configuration not stated)" recorded_metric=AC50 observed=inactive
compound=Oc1c(Cl)cc(Cl)c(Cl)c1Cc1c(O)c(Cl)cc(Cl)c1Cl recorded_metric=AC50 observed="540 nM (active)"

----------
- Read-out: Monokine induced gamma interferon (MIG), CXCL9 (gene 4283)
- test.details: BSK_BE3C_MIG: BioMAP Diversity Plus: BE3C Assay for Monokine induced gamma interferon (MIG) Biomarker Activity (AID 2283035)
- test.conditions: primary human bronchial epithelial cells; actives raise or lower the signal
The source made the active and inactive calls. How the source made its calls: active means hit-call score of the fitted dose curve at least 0.9, where 1 is the maximum; inactive means score below 0.9.
Possible outcomes: active, inactive

compound=Clc1cc(Cl)c(-c2c(Cl)c(Cl)cc(Cl)c2Cl)cc1Cl group=inactive
compound=O=C1OC2(c3ccccc31)c1ccc(O)c(Br)c1Oc1c2ccc(O)c1Br group=inactive
compound=CCCCCC(C=O)=Cc1ccccc1 group=inactive
compound=CC(=O)c1c(C)c([N+](=O)[O-])c(C(C)(C)C)c([N+](=O)[O-])c1C group=inactive
compound=CSCCC=O group=inactive
compound=c1ccc(CCc2ccccc2)cc1 group=inactive
compound=CN(c1nccc(=O)[nH]1)C1CCN(c2nc3ccccc3n2Cc2ccc(F)cc2)CC1 group=inactive
compound=CN(C)C(=S)SC(=S)N(C)C group=active
compound=CCCCOC(=O)CCCCCCCC(=O)OCCCC group=inactive
compound=CCCCCCCCCCCCCCCC(=O)OC/C=C(C)/C=C/C=C(C)/C=C/C1=C(C)CCCC1(C)C group=inactive
compound=CC(C)(C)CC(C)(C)c1ccc(OCCOCC[N+](C)(C)Cc2ccccc2)cc1 group=active
compound=CCCCN(CCCC)C(=O)N(CCCC)CCCC group=active
compound="CC(C=O)Cc1ccc(C(C)(C)C)cc1 (centres undefined)" group=inactive
compound=Cc1cc(CCC(=O)OCCOCCOCCOC(=O)CCc2cc(C)c(O)c(C(C)(C)C)c2)cc(C(C)(C)C)c1O group=inactive
compound=O=C(Nc1ccc2c(O)c(N=Nc3ccc(N=Nc4ccc(S(=O)(=O)O)cc4)cc3)c(S(=O)(=O)O)cc2c1)c1ccccc1 group=inactive
compound=C=C(C)[C@H]1CC=C(C)C(=O)C1 group=inactive
compound=O=C1c2ccccc2C(=O)c2c(O)ccc(O)c21 group=inactive
compound=CC1(C)CCC[C@]2(C)[C@H]3CCO[C@]3(C)CC[C@@H]12 group=inactive
compound=CC(C)(N=C=O)c1cccc(C(C)(C)N=C=O)c1 group=inactive
compound=c1ccc(Oc2ccccc2)cc1 group=inactive
compound="C1=CC2C3C=CC(C3)C2C1 (centres undefined)" group=inactive
compound="CC(=O)C1(C)CC2=C(CCCC2(C)C)CC1C (centres undefined)" group=active
compound=IC(I)I group=inactive
compound="CCCCCCC(CO)CCCC (centres undefined)" group=inactive
compound=CCOC(=O)C(C#N)=C(c1ccccc1)c1ccccc1 group=inactive
compound=C=C(C)C(=O)OCCOCCOCCOCCOC(=O)C(=C)C group=inactive
compound=CC=Cc1ccc(OCC)c(O)c1 group=inactive
compound=CN(C)C(=O)Nc1ccc(Oc2ccc(Cl)cc2)cc1 group=inactive
compound=CS(=O)(=O)OCCCCOS(C)(=O)=O group=inactive

----------
- assay.system: Heat shock factor protein 1 (Homo sapiens) (UniProt Q00613)
- Sequence (Q00613 whole entry, looked up): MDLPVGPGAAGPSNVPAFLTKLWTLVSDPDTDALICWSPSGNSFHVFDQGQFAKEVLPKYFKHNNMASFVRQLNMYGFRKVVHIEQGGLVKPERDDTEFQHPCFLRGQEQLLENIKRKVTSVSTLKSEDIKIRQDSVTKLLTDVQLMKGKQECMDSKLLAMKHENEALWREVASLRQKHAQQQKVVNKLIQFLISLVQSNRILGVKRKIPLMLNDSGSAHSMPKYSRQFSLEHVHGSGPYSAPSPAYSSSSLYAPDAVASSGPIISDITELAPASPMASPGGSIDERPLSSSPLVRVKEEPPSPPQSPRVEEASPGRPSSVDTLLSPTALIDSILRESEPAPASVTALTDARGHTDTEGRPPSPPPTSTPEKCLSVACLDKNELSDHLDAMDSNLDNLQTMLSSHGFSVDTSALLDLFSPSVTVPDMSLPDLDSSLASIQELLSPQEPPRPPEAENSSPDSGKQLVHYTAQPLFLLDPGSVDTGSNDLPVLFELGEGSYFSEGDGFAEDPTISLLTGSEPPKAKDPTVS
- test.details: ATG_HSE_CIS: Attagene CIS-FACTORIAL HepG2 Assay for human Heat Shock Transcription Factor 1 (HSE) (AID 2282953)
- test.conditions: HepG2 HSE cis-reporter, Attagene RNA transcription; actives raise or lower the signal
The source made the active and inactive calls. Rule for the calls: active = hit-call score of the fitted dose curve at least 0.9, where 1 is the maximum; inactive = score below 0.9.
recorded.metric: AC50

compound=O=c1c(O)c(-c2ccc(O)cc2)oc2cc(O)cc(O)c12 observed=inactive
compound=O=C1OC[C@H](Cc2cccc(O)c2)[C@H]1Cc1cccc(O)c1 observed=inactive
compound=CS(=O)(=O)c1ccc(C2=C(c3ccccc3)C(=O)OC2)cc1 observed=inactive
compound="CCC(C)c1cc([N+](=O)[O-])cc([N+](=O)[O-])c1OC(=O)OC(C)C (stereo unspecified)" observed="26.6 µM (active)"
compound=Cc1ccc(-c2ccccc2)cc1 observed=inactive
compound=C=C(C)[C@@H]1CC=C(C)C(=O)C1 observed=inactive

----------
- test.details: ATG_PBREM_CIS: Attagene CIS-FACTORIAL HepG2 Assay for human Phenobarbital-responsive Enhancer Module (PBREM) (AID 2282955)
- test.conditions: HepG2 PBREM cis-reporter, Attagene multiplexed transcription; actives raise or lower the signal
The source made the active and inactive calls. Rule for the calls: active = hit-call score of the fitted dose curve at least 0.9, where 1 is the maximum; inactive = score below 0.9.
Possible outcomes: active, inactive

compound=ClC(c1ccccc1)(c1ccccc1)c1ccccc1 group=inactive
compound="CC1CC(O)CC(C)(C)C1 (stereo not drawn)" group=inactive
compound=CC1=CC[C@@]23C[C@@H]1C(C)(C)[C@@H]2CC[C@H]3C group=inactive
compound=C=C(C)C(=O)OCC(CC)(COC(=O)C(=C)C)COC(=O)C(=C)C group=inactive
compound=O=C(O)CCCCCCCCC(=O)O group=inactive
compound=CCOC(=O)[C@@H](C)Oc1ccc(Oc2nc3ccc(Cl)cc3o2)cc1 group=inactive
compound=COC(=O)Nc1ccc(Cl)c(Cl)c1 group=inactive
compound=Cc1cc(=O)oc2cc(N(C)C)ccc12 group=active
compound=O=C(O)c1cc(C(=O)O)cc([N+](=O)[O-])c1 group=inactive
compound=C=C(C)CNCC group=inactive
compound=CCCCC(CC)(CO)CO group=inactive
compound=CCCCCCCCc1ccc(S(=O)(=O)O)cc1 group=active
compound=CCCCN(CCCC)C(=O)N(CCCC)CCCC group=active
compound=CC(=O)c1c(C)c([N+](=O)[O-])c(C(C)(C)C)c([N+](=O)[O-])c1C group=inactive
compound="CCC(C)c1cc([N+](=O)[O-])cc([N+](=O)[O-])c1OC(=O)OC(C)C (stereo not drawn)" group=inactive
compound=CCCC(=O)OC(C)(C)Cc1ccccc1 group=inactive
compound=c1ccc(CN(Cc2ccccc2)Cc2ccccc2)cc1 group=inactive
compound=CCCC[O][Al]([O]CCCC)[O]CCCC group=inactive
compound=CCCCCC(C=O)=Cc1ccccc1 group=inactive
compound=C[N+](C)(C)CCCCCC[N+](C)(C)C group=inactive
compound=O=C(O)CNc1ccccc1 group=inactive
compound=C=COCCOCCOC=C group=inactive
compound=c1ccc2[nH]cnc2c1 group=inactive
compound=Nc1c(Cl)cc(Cl)cc1[N+](=O)[O-] group=inactive
compound="CCCC1O[C@@H]2C[C@H]3[C@@H]4CCC5=CC(=O)C=C[C@]5(C)[C@H]4[C@@H](O)C[C@]3(C)[C@]2(C(=O)CO)O1 (stereo partly drawn)" group=inactive
compound=CCCC(C)=O group=inactive
compound=CCN(CC)C(=O)N(CC)CC group=inactive
compound=CCCCOCC group=inactive

----------
- test.details: ATG_PXRE_CIS: Attagene CIS-FACTORIAL HepG2 Assay for human Pregnane X Receptor Element (PXRE) (AID 2282957)
- test.conditions: HepG2 Attagene CIS-FACTORIAL PXRE reporter, mRNA; actives raise or lower the signal
Activity calls are given as the source filed them. How the source made its calls: active means hit-call score of the fitted dose curve at least 0.9, where 1 is the maximum; inactive means score below 0.9.
Possible outcomes: t (active), f (inactive)

compound=OC[C@H]1O[C@@H]2O[C@H]3[C@H](O)[C@@H](O)[C@@H](O[C@H]4[C@H](O)[C@@H](O)[C@@H](O[C@H]5[C@H](O)[C@@H](O)[C@@H](O[C@H]6[C@H](O)[C@@H](O)[C@@H](O[C@H]7[C@H](O)[C@@H](O)[C@@H](O[C@H]8[C@H](O)[C@@H](O)[C@@H](O[C@H]9[C@H](O)[C@@H](O)[C@@H](O[C@H]1[C@H](O)[C@H]2O)O[C@@H]9CO)O[C@@H]8CO)O[C@@H]7CO)O[C@@H]6CO)O[C@@H]5CO)O[C@@H]4CO)O[C@@H]3CO group=t
compound="CC(C)NCC(O)COc1ccc(CC(N)=O)cc1 (stereo not given)" group=f
compound=C[N+](C)(C)CCCCCC[N+](C)(C)C group=f
compound=COc1cccc(OC)c1O group=t
compound="COC(=O)c1ccc(C)cc1C1=NC(C)(C(C)C)C(=O)N1 (stereo not given) (tested in a mixture with another compound)" group=t
compound=Oc1ccc2cc(SSc3ccc4cc(O)ccc4c3)ccc2c1 group=t
compound="CC(CN=Cc1ccccc1O)N=Cc1ccccc1O (stereo not given)" group=f
compound=COC(=O)c1ccc([N+](=O)[O-])cc1 group=f
compound=COc1cc(C(C)C)ccc1C group=f
compound=CCC1CCCCC1 group=f
compound=C=C(C)CNCC group=t
compound=CCCC[P+](CCCC)(CCCC)CCCC group=f
compound=Cc1ccc(C)o1 group=f
compound=CC(=O)O[C@H]1C[C@@H]2CC[C@@]1(C)C2(C)C group=f
compound="C=C(C)C(=O)OCCOC1CC2CC1C1C=CCC21 (stereo not given)" group=f
compound="CC(=O)C(C)O (stereo not given)" group=f
compound="C#CC(C)(O)CC(C)C (stereo not given)" group=f
compound=CCOc1ccccc1O group=f
compound=COc1ccccc1N=Nc1c(S(=O)(=O)O)cc2cc(S(=O)(=O)O)cc(NC(C)=O)c2c1O group=t
compound=CC1=NN(c2ccc(S(=O)(=O)O)cc2)C(=O)C1 group=f
compound=COc1ccc(CCO)cc1 group=f
compound="CCCCCCC(CO)CCCC (stereo not given)" group=t
compound="Clc1ccc(C(c2ccccc2Cl)C(Cl)Cl)cc1 (stereo not given)" group=t
compound=CS(=O)(=O)OCCCCOS(C)(=O)=O group=t
compound="CCCCCCCC(=O)OCC(O)CO (stereo not given)" group=f
compound=CN1CCOCC1 group=f
compound=CC1(C)CCC[C@]2(C)[C@H]3CCO[C@]3(C)CC[C@@H]12 group=t
compound=CCCC(=O)OCCc1ccccc1 group=f
compound=c1ccc(CN(Cc2ccccc2)Cc2ccccc2)cc1 group=t
compound=COc1ccc(N=Nc2cc(C)c(N=Nc3ccc(S(=O)(=O)O)cc3)cc2OC)cc1 group=t
compound=CC[N+](C)(CC)CC group=f
compound=CCCCCCCCN1CCCC1=O group=t
compound=CC1(C)C2=CCCC(C)(C)[C@]23CC[C@H]1C3 group=t
compound=C[C@H]1O[C@@H](O[C@H]2[C@@H](O)C[C@H](O[C@H]3[C@@H](O)C[C@H](O[C@H]4CC[C@@]5(C)[C@H](CC[C@@H]6[C@@H]5C[C@@H](O)[C@]5(C)[C@@H](C7=CC(=O)OC7)CC[C@]65O)C4)O[C@@H]3C)O[C@@H]2C)C[C@H](O)[C@@H]1O group=t
compound="C=C(C)C1CC=C(C)C(=O)C1 (stereo not given)" group=t
compound=CCN(CCN)c1cccc(C)c1 group=t
compound=Cc1[nH]c(=O)c(C#N)cc1-c1ccncc1 group=f
compound=C=CCCCCCCCCCC group=f
compound=CCCC(C)=O group=f
compound=OCCc1ccccc1 group=f
compound=CC(C)C[C@H](NC(=O)OCC1c2ccccc2-c2ccccc21)C(=O)O group=t
compound=O=C(CC(=O)c1ccccc1)c1ccccc1 group=t
compound=CCCCSCCCC group=f
compound=Nc1c(Cl)cc(Cl)cc1[N+](=O)[O-] group=t
compound=CC(C)(N=C=O)c1cccc(C(C)(C)N=C=O)c1 group=t
compound=C=C(C#N)C(=O)OCC group=f
compound=CCCCCCCC(=O)OCCCCCC group=t
compound=Cc1cc(S(=O)(=O)O)ccc1N=Nc1c(O)ccc2ccccc12 group=f
compound=COCCOCCOCCO group=t
compound=ClC(c1ccccc1)(c1ccccc1)c1ccccc1 group=t
